Data origin, for the record: the nanobody polyreactivity screen of Harvey et al. (2022)

experimentSummary: yeast display, Sf9 membrane polyspecificity reagent, FACS + sequencing; frameworks hold sequencing errors
measuredAttribute: polyreactivity (PSR sort gate)

Example sequences with recorded polyreactivity (PSR sort gate):
{"querySequence": "QVQLVESGGGLVQAGGSLRLSCAASGRIFDIYAMGWYRQAPGKERELVAAITTRGGSTYYADSVKGRFTISRDNAKNNVYLQMNSLKPEDTAVYYCAAAYSEDYRVIFYYWGQGTQVTVSS", "polyreactivity (PSR sort gate)": "low polyreactivity"}
{"querySequence": "QVQLVESGGGLVQAGGSLRLSCAASGSTFTGNVMGWYRQAPGKERELVAAIRDSGGSTYYADSVKGRFTISRDNAKNTVYLQMNSLKPEDTAVYYCDAEYLYGSYYGYYYWGQGTQVTVSS", "polyreactivity (PSR sort gate)": "low polyreactivity"}
{"querySequence": "QVQLVESGGGLVQAGGSLRLSCAASGNICRINGMGWYRQAPGKERELVASITRSGSTYYADSVKGRFTISRDNAKNTVYLQMNSLKPEDTAVYYCNADGWYWQAQGYDYWGQGTQVTVSS", "polyreactivity (PSR sort gate)": "low polyreactivity"}
{"querySequence": "QVQLVESGGGLVQAGGSLRLSCAASGFTFVKNAMGWYRQAPGKERELVAAITGSAGRTYYADSVKGRFTISRDNAKNTVYLQMNSLKPEDTAVYYCAAPRFAAPRRIGYDWGQGTQVTVSS", "polyreactivity (PSR sort gate)": "high polyreactivity"}
{"querySequence": "QVQLVESGGGLVQAGGSLRLSCAASGRIFVNNAMGWYRQAPGKERELVAAISKRGGSTYYADSVKGRFTISRDNAKNSVYLQMNSLKPEDTAVYYSAATPVYSGPYDYWGQGTQVTVSS", "polyreactivity (PSR sort gate)": "high polyreactivity"}

// query polyreactivity (PSR sort gate) value for entry `HVQLQESGGGLVQAGGSLRLSCAASGSIFQATYMGWYRQAPGKEREFVASITYGSITKYADSVNGRFTIGRDNAKDTLYLQMNSLKPEDTAVYYCAVDRHYIPAFHYWGQGTQVTVSS`
low polyreactivity

Then what about the sequence `QVQLVESGGGLVQAGGSLRLICAASGRTFAYYAMGWYIQAPGKERELVAAISSSGGRTYYADSVKGRFTISRDNAKNTVYLQMNSLKPEDTAVYFCAAYTTVKKNGYWGQGTQVTVSS` ?
high polyreactivity

Lookup `QVQLVESGGGLVQAGGSLRLSCAASGRTFGEYTMGWYRQAPGKERELVAAISSAGRTNYADSVKGRFTISRDNAKNTVYLQMNSLKPEDTAVYYCAKTAERLHYGVYRFDYWGQGTQVTVSS`
low polyreactivity

And then `QVQLVESVGGLVQAGGSLRLSCAASGRTFDSNAMGWYRQAPGKERELVAAISYSGGSTYYADSVKGRFTISRDNAKNTVYLQMNSLKPEDTAVYYCNAGAVHKKPARDYWGQGTQVTVSS` , what is it?
low polyreactivity

Again, but for `QVQLVESGGGLVQAGGSLRLTCAASGNNYLDNAMGWYRQAPGKERELVASITRSGSRTYYADSVKGRFTISRDNAKNTGYFQMNSLKPEDTAVFYCNAGVNERQYDYWGLGTQVTVSS`
high polyreactivity

What would you report for `QVQLVESGGGLVQAGGSLRLSCAASGGIFDFYAMGWYRQAPGKERELVAAITRSGSSTFYADSVKGRFTISRDNAKNTVYLQMNSLKPEDTAVYYCATRPTSDFVKRRVYEWLDYWGQGTQVTVSS` ?
low polyreactivity

Field entry: `QVQLVESGGGLVQAGGSLRLSCAASGITFPVYTMGWYRQAPGKERALVAAISRSGGRTYYADSVKGRFTISSDNAKNTVYLQMNSLKPEDTAVYYCAVRQATVTGGGYWGQGTQVTVSS`
high polyreactivity
